B1: TRIM35 (parent)
chain: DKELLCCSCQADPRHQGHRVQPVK

- Variants of: B1
- experiment-notes: protein stability index of a GFP-peptide fusion (GPS, HEK-293T) (PSI 1-6); higher = more stable;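 further: lentivirally expressed fusions sorted by FACS into six bins by GFP to DsRed ratio, PSI derived from sequencing read proportions per bin multiplied by bin number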
- assay-context: c terminus: a fixed tail appended
The variants listed here are annotated with their protein stability index.
endpoint-label: protein stability index

[[record]]
mutation_string = "K2N"
test_result = 3.95

[[record]]
mutation_string = "V20T"
test_result = 3.5

[[record]]
mutation_string = "Q21D"
test_result = 4.05

[[record]]
mutation_string = "Q16K"
test_result = 3.96

[[record]]
mutation_string = "C9H"
test_result = 4.1

[[record]]
mutation_string = "Q21A"
test_result = 3.79

[[record]]
mutation_string = "K24F"
test_result = 3.79

[[record]]
mutation_string = "S8M"
test_result = 2.87

[[record]]
mutation_string = "L4N"
test_result = 2.58

[[record]]
mutation_string = "D12S"
test_result = 3.06

[[record]]
mutation_string = "K2T"
test_result = 3.79

[[record]]
mutation_string = "S8I"
test_result = 2.64

[[record]]
mutation_string = "D12A"
test_result = 3.52

[[record]]
mutation_string = "C9A"
test_result = 3.85

[[record]]
mutation_string = "K24Y"
test_result = 2.79

[[record]]
mutation_string = "H15Y"
test_result = 3

[[record]]
mutation_string = "H18T"
test_result = 3.88

[[record]]
mutation_string = "C9K"
test_result = 4.64

[[record]]
mutation_string = "V23T"
test_result = 3.4

[[record]]
mutation_string = "V23A"
test_result = 3.88

[[record]]
mutation_string = "S8N"
test_result = 3.62

[[record]]
mutation_string = "Q10C"
test_result = 3.38

[[record]]
mutation_string = "D1N"
test_result = 3.77

[[record]]
mutation_string = "S8D"
test_result = 4.28

[[record]]
mutation_string = "K24L"
test_result = 2.65

[[record]]
mutation_string = "D1S"
test_result = 3.31

[[record]]
mutation_string = "K24R"
test_result = 2.82

[[record]]
mutation_string = "D12F"
test_result = 2.73

[[record]]
mutation_string = "D12V"
test_result = 3.21

[[record]]
mutation_string = "S8P"
test_result = 3.59

[[record]]
mutation_string = "P13G"
test_result = 3

[[record]]
mutation_string = "L5Q"
test_result = 4.36

[[record]]
mutation_string = "G17C"
test_result = 4.33

[[record]]
mutation_string = "E3C"
test_result = 2.26

[[record]]
mutation_string = "S8L"
test_result = 2.98

[[record]]
mutation_string = "P13C"
test_result = 4.78

[[record]]
mutation_string = "L4Q"
test_result = 4.36

[[record]]
mutation_string = "C9D"
test_result = 5.29

[[record]]
mutation_string = "C7E"
test_result = 4.44

[[record]]
mutation_string = "A11K"
test_result = 4.3

[[record]]
mutation_string = "Q21T"
test_result = 1.96

[[record]]
mutation_string = "H18I"
test_result = 3.9

[[record]]
mutation_string = "V20C"
test_result = 4.46

[[record]]
mutation_string = "P22C"
test_result = 4.52

[[record]]
mutation_string = "D12E"
test_result = 3.78

[[record]]
mutation_string = "P13M"
test_result = 2.71

[[record]]
mutation_string = "K24A"
test_result = 2.87

[[record]]
mutation_string = "A11C"
test_result = 3.23

[[record]]
mutation_string = "C7P"
test_result = 4.03

[[record]]
mutation_string = "H15W"
test_result = 3.33

[[record]]
mutation_string = "R19P"
test_result = 3.73

[[record]]
mutation_string = "C7A"
test_result = 4.12

[[record]]
mutation_string = "P13K"
test_result = 3.15

[[record]]
mutation_string = "P13E"
test_result = 3.44

[[record]]
mutation_string = "H15G"
test_result = 3.15

[[record]]
mutation_string = "V20Y"
test_result = 3.04

[[record]]
mutation_string = "P13N"
test_result = 3.79

[[record]]
mutation_string = "K2E"
test_result = 4.01

[[record]]
mutation_string = "A11E"
test_result = 3.26

[[record]]
mutation_string = "V23P"
test_result = 4.06

[[record]]
mutation_string = "K2W"
test_result = 4.1

[[record]]
mutation_string = "D1A"
test_result = 3.15

[[record]]
mutation_string = "R14P"
test_result = 4.18

[[record]]
mutation_string = "P13W"
test_result = 2.31

[[record]]
mutation_string = "G17K"
test_result = 3.99

[[record]]
mutation_string = "E3Q"
test_result = 3.73

[[record]]
mutation_string = "C9G"
test_result = 4.1

[[record]]
mutation_string = "D1P"
test_result = 3.49

[[record]]
mutation_string = "A11Y"
test_result = 2.93

[[record]]
mutation_string = "Q21H"
test_result = 3.61

[[record]]
mutation_string = "C7S"
test_result = 4.06

[[record]]
mutation_string = "H18N"
test_result = 3.98

[[record]]
mutation_string = "A11G"
test_result = 3.95

[[record]]
mutation_string = "R19I"
test_result = 3.19

[[record]]
mutation_string = "K2L"
test_result = 3.18

[[record]]
mutation_string = "H15I"
test_result = 2.99

[[record]]
mutation_string = "D1V"
test_result = 3.06

[[record]]
mutation_string = "Q16T"
test_result = 3.23

[[record]]
mutation_string = "H18A"
test_result = 3.89

[[record]]
mutation_string = "G17D"
test_result = 3.88

[[record]]
mutation_string = "Q10S"
test_result = 2.89

[[record]]
mutation_string = "Q10G"
test_result = 2.6

[[record]]
mutation_string = "R19Q"
test_result = 3.67

[[record]]
mutation_string = "R14A"
test_result = 4.06

[[record]]
mutation_string = "Q21E"
test_result = 4.26

[[record]]
mutation_string = "R19H"
test_result = 3.17

[[record]]
mutation_string = "L5I"
test_result = 3.76

[[record]]
mutation_string = "D12C"
test_result = 4.09

[[record]]
mutation_string = "P22M"
test_result = 2.73

[[record]]
mutation_string = "E3I"
test_result = 2.51

[[record]]
mutation_string = "L5D"
test_result = 4.43

